Provide the reported pest or weed control at 3.75 µM of each item.
# System: L3 animals
# procedure summary: Abnormal locomotory behaviour of L3 animals on solid agar (extended SAR)
# Type: in vivo, Caenorhabditis elegans
# test parameters: Caenorhabditis elegans; 3.75 uM, 1 h exposure, L3, mean of 4 replicates; read-out: % any phene 1 h (conc.) 3.75
# Protocol: 20 animals were scored after either 1, 6 or 24 hours of exposure to drug (as indicated) per replicate. […] Data are reported as the mean % of animals with abnormal phenotype over 4 independent replicates.
Write the answer as a number in %, unit excluded.

Input: If you can, please state the reported pest or weed control at 3.75 µM value of c1ccc(N2CCN(CC3CCCC3)CC2)cc1 [Ihh] .
Output: 4.2

Input: If you can, please state the reported pest or weed control at 3.75 µM value of c1ccc(N2CCN(C3CCCCCC3)CC2)cc1 [Iff] .
Output: 24.2

Input: If you can, please state the reported pest or weed control at 3.75 µM value of Fc1ccc(N2CCN(CC3CC=CCC3)CC2)cc1 (stereo not shown) [Iy] .
Output: 22.5

Input: If you can, please state the reported pest or weed control at 3.75 µM value of Clc1ccc(N2CCN(CC3CC4C=CC3C4)CC2)cc1 (stereo not shown) [Ix] .
Output: 89.2

Input: If you can, please state the reported pest or weed control at 3.75 µM value of Fc1ccc(N2CCN(C3CCCCCC3)CC2)cc1 [Iaa] .
Output: 45

Input: If you can, please state the reported pest or weed control at 3.75 µM value of CCC1CCC(N2CCN(c3ccc([N+](=O)[O-])cc3)CC2)CC1 (stereo not shown) [Ic] .
Output: 29.2

Input: If you can, please state the reported pest or weed control at 3.75 µM value of O=[N+]([O-])c1ccc(N2CCN(C3CCCCCC3)CC2)cc1 [Ir] .
Output: 43.3

Input: If you can, please state the reported pest or weed control at 3.75 µM value of O=[N+]([O-])c1ccc(N2CCN(C3CCCCCCC3)CC2)cc1 [Is] .
Output: 3.3

Input: If you can, please state the reported pest or weed control at 3.75 µM value of c1ccc(N2CCN(C3CCCCCCC3)CC2)cc1 [Icc] .
Output: 46.7

Input: If you can, please state the reported pest or weed control at 3.75 µM value of CC1CCC(N2CCN(c3ccccc3)CC2)CC1 (stereo not shown) [Iz] .
Output: 60.8
